Source: paper PMC10053710

- System: Klebsiella aerogenes ATCC 13048
- Format: cell-based
- experimental parameters: ATCC 13048, 18 h
Where a SMILES comes first, the peptide text is derived from it. The star is where a group is joined. Benzoyl(4-Ph) = O=C(c1ccc(-c2ccccc2)cc1)*; Hydrocinnamoyl = O=C(CCc1ccccc1)*; Octanoyl = CCCCCCCC(=O)*; X1 = CCCCCCC(CCCC)C(=O)*
Please respond with reported MIC K. aerogenes for every item in the list.
Answers are plain numbers, in mg/L.

Look over these answered cases.
CC[C@H](C)[C@H](NC(=O)[C@H](CCCNC(=N)N)NC(=O)[C@H](CCC(N)=O)NC(=O)[C@@H](NC(=O)[C@@H](NC(=O)[C@H](CCCNC(=N)N)NC(=O)[C@H](CCCCN)NC(=O)c1ccc(-c2ccccc2)cc1)[C@@H](C)CC)C(C)C)C(=O)N[C@@H](CCCCN)C(=O)N[C@@H](CC(=O)O)C(=O)N[C@@H](Cc1ccccc1)C(=O)N[C@@H](CC(C)C)C(=O)N[C@@H](CCCNC(=N)N)C(N)=O [XXI, 4-Phenylbenzoic acid-KR12-NH2] ({Benzoyl(4-Ph)}-KRIVQRIKDFLR-NH2)	4
CCCCCCCC(=O)N[C@@H](CCCNC(=N)N)C(=O)N[C@@H](CC(C)C)C(=O)N[C@@H](Cc1ccccc1)C(=O)N[C@@H](CC(=O)O)C(=O)N[C@@H](CCCCN)C(=O)N[C@H](C(=O)N[C@@H](CCCNC(=N)N)C(=O)N[C@@H](CCC(N)=O)C(=O)N[C@H](C(=O)N[C@H](C(=O)N[C@@H](CCCNC(=N)N)C(=O)N[C@@H](CCCCN)C(N)=O)[C@@H](C)CC)C(C)C)[C@@H](C)CC [XII, C8^α-retro-KR12-NH2] (Octanoyl-RLFDKIRQVIRK-NH2)	256

For the 4 compounds below, give their MIC K. aerogenes values.
1. CCCCCCCC(=O)NCCCC[C@H](NC(=O)[C@@H](NC(=O)[C@H](CCCNC(=N)N)NC(=O)[C@H](CCC(N)=O)NC(=O)[C@@H](NC(=O)[C@@H](NC(=O)[C@H](CCCNC(=N)N)NC(=O)[C@@H](N)CCCCN)[C@@H](C)CC)C(C)C)[C@@H](C)CC)C(=O)N[C@@H](CC(=O)O)C(=O)N[C@@H](Cc1ccccc1)C(=O)N[C@@H](CC(C)C)C(=O)N[C@@H](CCCNC(=N)N)C(N)=O [VIII, [Lys^ε(C8)]^8KR12-NH2] (H-KRIVQRIK(Octanoyl)DFLR-NH2)
2. CCCCCCC(CCCC)C(=O)N[C@@H](CCCCN)C(=O)N[C@@H](CCCNC(=N)N)C(=O)N[C@H](C(=O)N[C@H](C(=O)N[C@@H](CCC(N)=O)C(=O)N[C@@H](CCCNC(=N)N)C(=O)N[C@H](C(=O)N[C@@H](CCCCN)C(=O)N[C@@H](CC(=O)O)C(=O)N[C@@H](Cc1ccccc1)C(=O)N[C@@H](CC(C)C)C(=O)N[C@@H](CCCNC(=N)N)C(N)=O)[C@@H](C)CC)C(C)C)[C@@H](C)CC (stereo partly drawn) [XIII, 2-Buthyloctanoic acid-KR12-NH2] (X1-KRIVQRIKDFLR-NH2)
3. CCCCCCCC(=O)NCCCC[C@H](N)C(=O)N[C@@H](CCCCN)C(=O)N[C@@H](CCCNC(=N)N)C(=O)N[C@H](C(=O)N[C@H](C(=O)N[C@@H](CCC(N)=O)C(=O)N[C@@H](CCCNC(=N)N)C(=O)N[C@H](C(=O)N[C@@H](CCCCN)C(=O)N[C@@H](CC(=O)O)C(=O)N[C@@H](Cc1ccccc1)C(=O)N[C@@H](CC(C)C)C(=O)N[C@@H](CCCNC(=N)N)C(N)=O)[C@@H](C)CC)C(C)C)[C@@H](C)CC [V, C8^ε-Lys-KR12-NH2] (H-K(Octanoyl)KRIVQRIKDFLR-NH2)
4. CC[C@H](C)[C@H](NC(=O)[C@H](CCCNC(=N)N)NC(=O)[C@H](CCC(N)=O)NC(=O)[C@@H](NC(=O)[C@@H](NC(=O)[C@H](CCCNC(=N)N)NC(=O)[C@H](CCCCN)NC(=O)CCc1ccccc1)[C@@H](C)CC)C(C)C)C(=O)N[C@@H](CCCCN)C(=O)N[C@@H](CC(=O)O)C(=O)N[C@@H](Cc1ccccc1)C(=O)N[C@@H](CC(C)C)C(=O)N[C@@H](CCCNC(=N)N)C(N)=O [XVII, 3-Phenylpropionic acid-KR12-NH2] (Hydrocinnamoyl-KRIVQRIKDFLR-NH2)

*A*
32
8
64
64
